- Assay System: Protein cereblon/Tyrosine-protein kinase ABL1/Breakpoint cluster region protein (Homo sapiens, UniProt P00519+P11274+Q96SW2)
- Sequence (P00519 whole entry, the tested form may be a part): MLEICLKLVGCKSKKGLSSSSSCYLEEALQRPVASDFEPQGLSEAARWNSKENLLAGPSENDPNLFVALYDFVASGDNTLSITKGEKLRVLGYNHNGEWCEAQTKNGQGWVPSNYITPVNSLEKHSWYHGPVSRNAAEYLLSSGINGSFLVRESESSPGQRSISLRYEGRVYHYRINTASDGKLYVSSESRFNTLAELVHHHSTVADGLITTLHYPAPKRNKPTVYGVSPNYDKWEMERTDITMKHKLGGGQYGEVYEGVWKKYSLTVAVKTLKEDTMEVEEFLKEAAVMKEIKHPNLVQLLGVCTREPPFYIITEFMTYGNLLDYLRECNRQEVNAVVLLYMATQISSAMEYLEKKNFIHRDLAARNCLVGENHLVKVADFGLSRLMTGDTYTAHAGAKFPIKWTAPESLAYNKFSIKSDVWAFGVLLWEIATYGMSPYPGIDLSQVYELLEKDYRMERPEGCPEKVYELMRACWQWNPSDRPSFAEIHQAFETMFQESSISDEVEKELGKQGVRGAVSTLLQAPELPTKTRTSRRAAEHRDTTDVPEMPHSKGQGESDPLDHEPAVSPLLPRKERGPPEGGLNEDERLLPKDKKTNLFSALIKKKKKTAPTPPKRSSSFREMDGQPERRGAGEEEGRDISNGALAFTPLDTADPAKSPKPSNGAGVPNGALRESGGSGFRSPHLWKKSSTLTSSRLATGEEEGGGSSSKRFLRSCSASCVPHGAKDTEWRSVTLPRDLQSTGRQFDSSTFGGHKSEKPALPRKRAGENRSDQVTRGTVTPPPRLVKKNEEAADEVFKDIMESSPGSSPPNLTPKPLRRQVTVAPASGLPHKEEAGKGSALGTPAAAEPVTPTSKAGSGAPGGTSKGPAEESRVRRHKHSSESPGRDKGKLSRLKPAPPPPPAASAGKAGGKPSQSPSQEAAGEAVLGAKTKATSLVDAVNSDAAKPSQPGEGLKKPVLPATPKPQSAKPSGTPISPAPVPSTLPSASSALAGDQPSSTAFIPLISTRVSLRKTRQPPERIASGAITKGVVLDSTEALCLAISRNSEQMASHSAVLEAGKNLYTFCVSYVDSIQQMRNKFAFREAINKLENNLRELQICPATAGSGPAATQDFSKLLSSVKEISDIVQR
- Sequence (P11274 whole entry, the tested form may be a part): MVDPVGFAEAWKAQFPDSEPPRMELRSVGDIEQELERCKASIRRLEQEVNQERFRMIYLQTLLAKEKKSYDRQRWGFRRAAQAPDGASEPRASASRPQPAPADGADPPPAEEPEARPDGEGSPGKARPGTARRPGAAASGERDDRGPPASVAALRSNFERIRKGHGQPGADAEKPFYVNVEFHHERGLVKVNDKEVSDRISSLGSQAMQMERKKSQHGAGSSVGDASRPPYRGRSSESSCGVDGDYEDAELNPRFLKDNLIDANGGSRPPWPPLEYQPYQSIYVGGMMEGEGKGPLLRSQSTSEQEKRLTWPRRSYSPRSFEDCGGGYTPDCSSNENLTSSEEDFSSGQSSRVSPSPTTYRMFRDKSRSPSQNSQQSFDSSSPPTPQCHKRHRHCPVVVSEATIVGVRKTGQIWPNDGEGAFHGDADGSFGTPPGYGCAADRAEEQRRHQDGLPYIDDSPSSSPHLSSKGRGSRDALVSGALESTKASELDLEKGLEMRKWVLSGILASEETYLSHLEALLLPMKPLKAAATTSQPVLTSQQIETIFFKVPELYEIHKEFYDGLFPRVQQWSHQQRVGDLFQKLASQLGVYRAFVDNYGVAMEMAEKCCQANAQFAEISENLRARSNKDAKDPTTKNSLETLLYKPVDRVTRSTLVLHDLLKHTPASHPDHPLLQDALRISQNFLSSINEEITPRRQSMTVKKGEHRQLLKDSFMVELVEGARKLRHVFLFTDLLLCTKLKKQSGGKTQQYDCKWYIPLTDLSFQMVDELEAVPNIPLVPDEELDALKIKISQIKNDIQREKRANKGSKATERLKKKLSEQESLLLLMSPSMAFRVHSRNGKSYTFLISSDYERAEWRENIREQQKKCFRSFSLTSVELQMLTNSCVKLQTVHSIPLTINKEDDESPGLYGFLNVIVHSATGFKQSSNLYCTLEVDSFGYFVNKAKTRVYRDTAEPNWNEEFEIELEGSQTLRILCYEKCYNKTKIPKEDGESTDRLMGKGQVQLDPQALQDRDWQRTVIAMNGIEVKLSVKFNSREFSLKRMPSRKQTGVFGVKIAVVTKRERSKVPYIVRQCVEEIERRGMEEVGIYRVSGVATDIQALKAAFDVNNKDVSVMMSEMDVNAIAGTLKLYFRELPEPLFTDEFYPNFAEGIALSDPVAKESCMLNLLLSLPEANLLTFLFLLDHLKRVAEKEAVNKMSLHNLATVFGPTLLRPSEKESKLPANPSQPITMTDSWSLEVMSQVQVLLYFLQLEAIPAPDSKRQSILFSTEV
- Sequence (Q96SW2 whole entry, the tested form may be a part): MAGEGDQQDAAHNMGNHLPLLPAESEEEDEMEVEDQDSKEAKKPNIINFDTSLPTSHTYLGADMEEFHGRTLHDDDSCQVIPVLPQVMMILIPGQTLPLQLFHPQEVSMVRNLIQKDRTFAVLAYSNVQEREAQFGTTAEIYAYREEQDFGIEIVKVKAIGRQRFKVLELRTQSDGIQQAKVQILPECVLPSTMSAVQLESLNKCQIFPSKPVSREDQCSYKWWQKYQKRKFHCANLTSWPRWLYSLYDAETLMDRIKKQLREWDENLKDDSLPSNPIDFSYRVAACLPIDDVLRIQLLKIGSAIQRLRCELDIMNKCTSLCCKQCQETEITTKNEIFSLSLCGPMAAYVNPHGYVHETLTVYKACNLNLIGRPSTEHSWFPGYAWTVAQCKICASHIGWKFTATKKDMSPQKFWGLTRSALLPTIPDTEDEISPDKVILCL
- Test Protocol: Protac binding affinity at CRBN/BCR-ABL (unknown origin) assessed as binding to non phosphorylated c-ABL kinase domain by Kinomescan assay
- Format: protein assay
Metric Name: Kd (nM)
One number for each entry, in nM.

Compound	Metric Name	Quantitative Readout
COc1cc(Nc2c(C#N)cnc3cc(OCCCN4CCN(CCCCCCOCCOCC(=O)Nc5cccc6c5C(=O)N(C5CCC(=O)NC5=O)C6=O)CC4)c(OC)cc23)c(Cl)cc1Cl (centres undefined)	Kd	0.28
COc1cc(Nc2c(C#N)cnc3cc(OCCCN4CCN(CCCCCCOCCOCCOCCOCCOCCOCC(=O)Nc5cccc6c5C(=O)N(C5CCC(=O)NC5=O)C6=O)CC4)c(OC)cc23)c(Cl)cc1Cl (centres undefined)	Kd	0.38
COc1cc(Nc2c(C#N)cnc3cc(OCCCN4CCN(CCCCCCOCCOCCOCCCCCC(=O)Nc5cccc6c5C(=O)N(C5CCC(=O)NC5=O)C6=O)CC4)c(OC)cc23)c(Cl)cc1Cl (centres undefined)	Kd	0.91

For the next question, use this compound.
Task item: Kd for Cc1nc(Nc2ncc(C(=O)Nc3c(C)cccc3Cl)s2)cc(N2CCN(CCCCCCOCCOCCOCCOCCOCCOCC(=O)Nc3cccc4c3C(=O)N(C3CCC(=O)NC3=O)C4=O)CC2)n1 (centres undefined) ?
Reply: 0.26

* * *

- Assay System: von Hippel-Lindau disease tumor suppressor/Tyrosine-protein kinase ABL1/Breakpoint cluster region protein (Homo sapiens, UniProt P00519+P11274+P40337)
- Sequence (P00519 whole entry, the tested form may be a part): as the sequence (P00519 whole entry, the tested form may be a part) above
- Sequence (P11274 whole entry, the tested form may be a part): as the sequence (P11274 whole entry, the tested form may be a part) above
- Sequence (P40337 whole entry, the tested form may be a part): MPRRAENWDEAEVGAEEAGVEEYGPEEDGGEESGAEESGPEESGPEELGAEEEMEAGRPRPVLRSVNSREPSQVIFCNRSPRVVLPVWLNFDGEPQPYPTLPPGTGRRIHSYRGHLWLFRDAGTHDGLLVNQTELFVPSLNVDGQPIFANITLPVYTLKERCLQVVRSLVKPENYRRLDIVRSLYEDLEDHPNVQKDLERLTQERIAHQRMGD
- Test Protocol: Protac binding affinity at VHL/BCR-ABL (unknown origin) assessed as binding to phosphorylated c-ABL kinase domain by Kinomescan assay
- Assay type: protein assay
Kindly state pKd for each of the entries shown.
One number for each entry, as −log10 of the molar value.

Some solved entries appear below for comparison.
Cc1nc(Nc2ncc(C(=O)Nc3c(C)cccc3Cl)s2)cc(N2CCN(CCCCCCOCCOCCOCCCCCC(=O)N[C@H](C(=O)N3C[C@H](O)C[C@H]3C(=O)NCc3ccc(-c4scnc4C)cc3)C(C)(C)C)CC2)n1 9.33
Cc1nc(Nc2ncc(C(=O)Nc3c(C)cccc3Cl)s2)cc(N2CCN(CCCCCCOCCOCCOCCOCCOCCOCC(=O)N[C@H](C(=O)N3C[C@H](O)C[C@H]3C(=O)NCc3ccc(-c4scnc4C)cc3)C(C)(C)C)CC2)n1 10.06
Cc1nc(Nc2ncc(C(=O)Nc3c(C)cccc3Cl)s2)cc(N2CCN(CCCCCCOCCOCC(=O)N[C@H](C(=O)N3C[C@H](O)C[C@H]3C(=O)NCc3ccc(-c4scnc4C)cc3)C(C)(C)C)CC2)n1 9.68

Would you be so kind as to report pKd for each listed record?
1. COc1cc(Nc2c(C#N)cnc3cc(OCCCN4CCN(CCCCCCOCCOCC(=O)N[C@H](C(=O)N5C[C@H](O)C[C@H]5C(=O)NCc5ccc(-c6scnc6C)cc5)C(C)(C)C)CC4)c(OC)cc23)c(Cl)cc1Cl
2. COc1cc(Nc2c(C#N)cnc3cc(OCCCN4CCN(CCCCCCOCCOCCOCCOCCOCCOCC(=O)N[C@H](C(=O)N5C[C@H](O)C[C@H]5C(=O)NCc5ccc(-c6scnc6C)cc5)C(C)(C)C)CC4)c(OC)cc23)c(Cl)cc1Cl

Reply:
1. 9.17
2. 9.52

Origin of values: ChEMBL document CHEMBL4665907
